- Experimental system: LXRβ (Homo sapiens, UniProt P55055)
- Construct: Co-transfection expression plasmids, comprising full-length LXRα (pCMX-h LXRα[…] or LXRβ (pCMX-hLXRβ)); expressed in transfected cells; host or cells: CV-1 African Green Monkey Kidney Cells
- Sequence (P55055 whole entry): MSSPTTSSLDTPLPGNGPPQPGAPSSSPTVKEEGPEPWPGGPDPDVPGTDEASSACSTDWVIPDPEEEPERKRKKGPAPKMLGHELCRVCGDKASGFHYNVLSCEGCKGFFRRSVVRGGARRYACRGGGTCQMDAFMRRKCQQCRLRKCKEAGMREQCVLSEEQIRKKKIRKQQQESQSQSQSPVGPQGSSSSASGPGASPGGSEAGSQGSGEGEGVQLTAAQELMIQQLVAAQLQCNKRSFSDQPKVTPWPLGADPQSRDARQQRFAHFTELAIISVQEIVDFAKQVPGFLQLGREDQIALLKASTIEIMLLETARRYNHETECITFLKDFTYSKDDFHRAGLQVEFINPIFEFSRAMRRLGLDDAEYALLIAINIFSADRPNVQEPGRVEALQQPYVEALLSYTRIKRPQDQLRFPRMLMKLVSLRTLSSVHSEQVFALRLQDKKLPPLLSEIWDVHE
- Sequence (P19793 whole entry partner): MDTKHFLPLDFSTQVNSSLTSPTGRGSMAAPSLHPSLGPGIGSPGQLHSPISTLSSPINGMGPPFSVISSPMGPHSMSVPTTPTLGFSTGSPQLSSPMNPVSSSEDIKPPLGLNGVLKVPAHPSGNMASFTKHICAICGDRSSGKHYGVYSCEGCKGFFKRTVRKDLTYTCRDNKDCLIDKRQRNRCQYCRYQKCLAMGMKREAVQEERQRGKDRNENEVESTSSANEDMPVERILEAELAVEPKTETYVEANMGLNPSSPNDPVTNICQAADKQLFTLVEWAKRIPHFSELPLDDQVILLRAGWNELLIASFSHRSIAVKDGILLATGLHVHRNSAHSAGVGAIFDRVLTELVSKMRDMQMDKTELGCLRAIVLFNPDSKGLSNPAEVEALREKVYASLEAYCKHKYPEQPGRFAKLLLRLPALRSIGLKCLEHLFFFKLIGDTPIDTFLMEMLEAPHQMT
- Protocol details: Co-transfection assay (LXRE luciferase reporter), LXRβ
- Type: cell-based
- Protocol conditions: CV-1 cells transfected with pCMX-hLXRβ and LXREx1-Tk-Luciferase; 20 hours incubation
Endpoint label: log10 EC50 (log10 of the value in nM)
In plain terms, each number is the log10 of measured EC50 in nM.

Worked cases, log10 EC50 given:
Cc1nc(C(F)(F)F)cn1-c1ccc(-c2cc(F)c(CO)c(S(C)(=O)=O)c2)c(Cl)c1-n1nncc1-c1ccc(Cl)cc1 | 3.29
Cc1nc(-c2cc(-c3cc(F)c(CO)c(S(C)(=O)=O)c3)ccc2-n2cc(C(F)(F)F)nc2C)c(-c2ccc(Cl)c(F)c2)o1 | 1.70
CS(=O)(=O)c1cc(-c2ccc(-n3cc(C(F)(F)F)nc3Cl)c(-n3nncc3-c3ccc(Cl)cc3Cl)c2)cc(F)c1CO | 2.37

stdin: Hi! What's the reported log10 EC50 for Cc1nc(-c2cc(-c3cccc(S(=O)(=O)C4CC4)c3)ccc2-n2cc(C(F)(F)F)nc2C)c(-c2ccc3c(c2)OC(F)(F)O3)o1 on LXRβ (Homo sapiens, UniProt P55055)?
stdout: 1.48

stdin: Hi! What's the reported log10 EC50 for Cc1nc(Cl)cn1-c1ccc(-c2cc(F)c(CO)c(S(C)(=O)=O)c2)cc1-n1nncc1-c1ccc(Cl)cc1 on LXRβ (Homo sapiens, UniProt P55055)?
stdout: 2.65

stdin: Hi! What's the reported log10 EC50 for Cc1nc(C(F)(F)F)cn1-c1ccc(-c2cc(F)c(CO)c(S(C)(=O)=O)c2)cc1-n1nncc1C(=O)c1ccc(C(F)(F)F)cc1 on LXRβ (Homo sapiens, UniProt P55055)?
stdout: 2.79

stdin: Hi! What's the reported log10 EC50 for Cc1nc(C(F)F)cn1-c1ccc(-c2cccc(S(=O)(=O)N(C)C)c2)cc1-n1nncc1-c1ccc(OC(F)(F)F)cc1 on LXRβ (Homo sapiens, UniProt P55055)?
stdout: 2.85

stdin: Hi! What's the reported log10 EC50 for Cc1nc(-c2cc(-c3ccc(C)c(S(C)(=O)=O)c3)ccc2-n2cc(C(F)(F)F)nc2C)c(-c2ccc(C(F)(F)F)nc2Cl)o1 on LXRβ (Homo sapiens, UniProt P55055)?
stdout: 2.86

stdin: Hi! What's the reported log10 EC50 for CCc1nc(-c2cc(-c3ccc(CO)c(S(C)(=O)=O)c3)ccc2-n2cc(C(F)(F)F)nc2C)c(-c2ccc(OC(F)(F)F)cc2)o1 on LXRβ (Homo sapiens, UniProt P55055)?
stdout: 2.15

stdin: Hi! What's the reported log10 EC50 for CCCc1nc(-c2cc(-c3ccc(CO)c(S(C)(=O)=O)c3)ccc2-n2cc(C(F)(F)F)nc2C)c(-c2ccc(OC(F)(F)F)cc2)o1 on LXRβ (Homo sapiens, UniProt P55055)?
stdout: 1.00

stdin: Hi! What's the reported log10 EC50 for COCS(=O)(=O)c1cccc(-c2ccc(-n3cc(C(F)(F)F)nc3C)c(-n3nncc3-c3ccc(OC(F)(F)F)cc3)c2)c1 on LXRβ (Homo sapiens, UniProt P55055)?
stdout: 2.69

stdin: Hi! What's the reported log10 EC50 for Cc1nc(C(F)(F)F)cn1-c1ccc(-c2cccc(S(C)(=O)=O)c2)cc1-c1ocnc1-c1ccc(OC(F)(F)F)cc1 on LXRβ (Homo sapiens, UniProt P55055)?
stdout: 2.26

stdin: Hi! What's the reported log10 EC50 for CCC(F)(F)c1cn(-c2ccc(-c3cccc(S(C)(=O)=O)c3)cc2-c2nc(C)oc2-c2ccc(OC(F)(F)F)cc2)c(C)n1 on LXRβ (Homo sapiens, UniProt P55055)?
stdout: 2.16

Sourced from patent US9834542B2
